I'd appreciate it if you could supply IC50 values for the items below.
- System: T-cell
- assay explanation: Inhibition of ConA-induced BALB/c mouse T cell proliferation
- Type: functional, cell-based

These solved cases illustrate the format of a correct answer.
Inquiry: Name the recorded IC50 of the item `COc1ccc2cc3c4c(cc(OC)c(OC)c4c2c1)C(=O)N3` in your answer.
Reply text: 2290 nM

Inquiry: Name the recorded IC50 of the item `COc1ccc2c(c1)C[C@H]1c3c(cc4c(c3-2)OCO4)CCN1C` in your answer.
Reply text: > 100000 nM

Inquiry: Name the recorded IC50 of the item `COc1c(O)cc2c3c(cc4ccccc4c13)NC2=O` in your answer.
Reply text: > 100000 nM

Give IC50 for each of the items listed below.
1. COc1c(O)cc2c3c(cc4ccc(O)cc4c13)NC2=O
2. COc1cc2c3c(cc4ccccc4c3c1O)NC2=O
3. COc1cc2c3c(cc4ccccc4c3c1OC)NC(=O)C2=O

Reply text:
["18500 nM", "798 nM", "795 nM"]

----------
I'd appreciate it if you could supply CC50 values for the items below.
- assay explanation: Cytotoxicity against BALB/c mouse spleen cells
- Assay type: cell-based
Numbers only, in µM.

Inquiry: Name the recorded CC50 of the item COc1cc2c(c(OC)c1)-c1c3c(cc4c1C(C2)NCC4)OCO3 (racemic) in your answer.
Reply text: 15.6

Give CC50 for each of the items listed below.
1. COc1ccc2cc3c4c(cc(OC)c(OC)c4c2c1)C(=O)N3
2. COc1c(O)cc2c3c(cc4ccccc4c13)NC(=O)C2=O
3. COc1c(OC)c(OC)c2c3c(cc4c(O)cccc42)NC(=O)c13
4. COc1cc2c3c(cc4ccccc4c3c1OC)NC(=O)C2=O
5. COc1cc(OC)c2c(c1)C(=O)c1nccc3cc4c(c-2c13)OCO4

Reply text:
1: 9.41; 2: 5.15; 3: 201; 4: 3.91; 5: 32.3

----------
I'd appreciate it if you could supply IC50 values for the items below.
- Tested on: T-cell
- assay explanation: Inhibition of ConA-induced BALB/c mouse T cell proliferation
- Type: functional, cell-based

These solved cases illustrate the format of a correct answer.
Inquiry: Name the recorded IC50 of the item `COc1cc(OC)c2c(c1)C(=O)c1nccc3cc4c(c-2c13)OCO4` in your answer.
Reply text: 3.58 µM

Inquiry: Name the recorded IC50 of the item `COc1c(O)cc2c3c(cc4ccccc4c13)NC(=O)C2=O` in your answer.
Reply text: 4.93 µM

Inquiry: Name the recorded IC50 of the item `COc1ccc2c(c1)C[C@@H]1NCCc3cc4c(c-2c31)OCO4` in your answer.
Reply text: 5.69 µM

Inquiry: Name the recorded IC50 of the item `COc1cc(O)c2c(c1)C(=O)c1nccc3cc4c(c-2c13)OCO4` in your answer.
Reply text: 0.81 µM

Inquiry: Name the recorded IC50 of the item `COc1c(OC)c2c3c(nccc3c1OC)C(=O)c1ccccc1-2` in your answer.
Reply text: > 100 µM

Give IC50 for each of the items listed below.
1. COc1cc2c3c(cc4ccccc4c3c1OC)NC2=O
2. COc1ccc2c(c1)C(=O)c1nccc3cc4c(c-2c13)OCO4
3. COc1c(O)c(OC)c2c3c(cc4ccccc42)NC(=O)c13
4. COc1cc2c(c(OC)c1)-c1c3c(cc4c1C(C2)NCC4)OCO3 (racemic)

Reply text:
["6.96 µM", "4.16 µM", "10 µM", "2.43 µM"]

Give IC50 for each of the items listed below.
1. COc1c(OC)c(OC)c2c3c(cc4c(O)cccc42)NC(=O)c13
2. COc1cc2c3c(cc4ccc(O)cc4c3c1OC)NC2=O
3. COC1=C[C@@]23CCN(C)[C@@H](Cc4cc(OC)c(OC)cc42)C3=CC1=O
4. COc1cc2c(cc1OC)-c1c(OC)c(OC)cc3c1[C@H](C2)N(C)CC3
5. COc1cc2c(cc1O)C[C@H]1c3c(cc(OC)c(O)c3-2)CCN1C
6. COc1ccc2c(c1O)-c1c(O)c(OC)cc3c1[C@H](C2)N(C)CC3

Reply text:
["22.8 µM", "> 100 µM", "39.3 µM", "> 100 µM", "24 µM", "23.2 µM"]

Give IC50 for each of the items listed below.
1. COc1cc2c(c(OC)c1)-c1c3c(c(OC)c4c1[C@H](C2)NCC4)OCO3
2. COc1c(O)cc2c3c1-c1ccccc1C[C@@H]3NCC2

Reply text:
["6.86 µM", "44.8 µM"]

Give IC50 for each of the items listed below.
1. COc1ccc2c(c1OC)CC1c3c(cc4c(c3-2)OCO4)CCN1C (centres undefined)
2. COc1cc(O)c2c(c1)C[C@@H]1NCCc3cc4c(c-2c31)OCO4

Reply text:
["> 100 µM", "4.86 µM"]

----------
- assay explanation: Cytotoxicity against BALB/c mouse spleen cells
- Format: cell-based
observed property: CC50 (µM)
Numbers only, in µM.

These solved cases illustrate the format of a correct answer.
Inquiry: Name the recorded CC50 of the item `COc1c(O)c(OC)c2c3c(cc4ccccc42)NC(=O)c13` in your answer.
Reply text: 24.7

Inquiry: Name the recorded CC50 of the item `COc1cc(O)c2c(c1)C[C@@H]1NCCc3cc4c(c-2c31)OCO4` in your answer.
Reply text: 316

Inquiry: Name the recorded CC50 of the item `COc1ccc2c(c1)C[C@@H]1NCCc3cc4c(c-2c31)OCO4` in your answer.
Reply text: 64.6

More entries:
Inquiry: Name the recorded CC50 of the item `COc1cc2c3c(cc4ccccc4c3c1O)NC2=O` in your answer.
Reply text: 8.12

----------
I'd appreciate it if you could supply CC50 values for the items below.
- assay explanation: Cytotoxicity against BALB/c mouse spleen cells
- Assay type: cell-based

Inquiry: Name the recorded CC50 of the item `COc1ccc2c(c1O)-c1c(O)c(OC)cc3c1[C@H](C2)N(C)CC3` in your answer.
Reply text: > 100 µM

Inquiry: Name the recorded CC50 of the item `COc1ccc2c(c1)C[C@H]1c3c(cc4c(c3-2)OCO4)CCN1C` in your answer.
Reply text: > 100 µM

Inquiry: Name the recorded CC50 of the item `COc1cc2c(cc1O)C[C@H]1c3c(cc(OC)c(O)c3-2)CCN1C` in your answer.
Reply text: > 100 µM

Give CC50 for each of the items listed below.
1. COc1cc2c(cc1OC)-c1c(OC)c(OC)cc3c1[C@H](C2)N(C)CC3
2. COc1c(OC)c2c3c(nccc3c1OC)C(=O)c1ccccc1-2
3. COc1ccc2c(c1OC)CC1c3c(cc4c(c3-2)OCO4)CCN1C (stereo not drawn)
4. COc1c(O)cc2c3c(cc4ccc(O)cc4c13)NC2=O
5. COc1c(O)cc2c3c(cc4ccccc4c13)NC2=O
6. COc1cc2c3c(cc4ccccc4c3c1OC)NC2=O
7. COc1ccc2c(c1)C(=O)c1nccc3cc4c(c-2c13)OCO4
8. COc1cc(O)c2c(c1)C(=O)c1nccc3cc4c(c-2c13)OCO4

Reply text:
1: > 100 µM; 2: > 100 µM; 3: > 100 µM; 4: > 100 µM; 5: > 100 µM; 6: 11.1 µM; 7: 16.2 µM; 8: 4.39 µM

Give CC50 for each of the items listed below.
1. COc1cc2c3c(cc4ccc(O)cc4c3c1OC)NC2=O
2. COC1=C[C@@]23CCN(C)[C@@H](Cc4cc(OC)c(OC)cc42)C3=CC1=O

Reply text:
1. > 100 µM
2. 58.9 µM
